# assay-name: Lipophilicity, log D of the compound at pH 7.4
# Assay type: physicochemical
# cond: buffer
quantity-measured: logD

O=C(Nc1cc(Nc2c(Cl)ccc3c2OCO3)ccn1)C1CC1 ... 3.3
CC(=O)Nc1cc(Nc2c(Cl)ccc3c2OCO3)ccn1 ... 2.7
O=C(Nc1cc(Nc2cccc3c2OCO3)ccn1)C1CC1 ... 3.7
O=C(Nc1cc(Nc2ccccc2)ccn1)C1CC1 ... 3.3
O=C(Nc1cc(Nc2c(Cl)cnc3c2OCO3)ccn1)C1CC1 ... 2.7

###

# target-or-test-system: Activin receptor type-1-like (Homo sapiens, UniProt P37023)
# Sequence (P37023 whole entry): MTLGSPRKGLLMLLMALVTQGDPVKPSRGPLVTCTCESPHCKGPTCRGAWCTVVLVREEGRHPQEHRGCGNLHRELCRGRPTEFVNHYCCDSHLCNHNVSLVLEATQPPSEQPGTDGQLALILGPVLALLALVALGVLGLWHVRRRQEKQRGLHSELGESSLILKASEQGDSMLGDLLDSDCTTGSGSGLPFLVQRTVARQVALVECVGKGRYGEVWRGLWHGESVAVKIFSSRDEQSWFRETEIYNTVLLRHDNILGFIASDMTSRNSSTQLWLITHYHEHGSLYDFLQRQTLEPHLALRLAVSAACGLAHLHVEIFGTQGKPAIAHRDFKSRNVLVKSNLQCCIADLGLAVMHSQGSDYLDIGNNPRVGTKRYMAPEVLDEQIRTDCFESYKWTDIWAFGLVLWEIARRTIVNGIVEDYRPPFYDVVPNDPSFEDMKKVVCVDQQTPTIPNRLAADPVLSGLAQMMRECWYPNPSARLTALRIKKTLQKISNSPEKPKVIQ
# assay-name: Inhibition of ALK1 in HMEC-1 assessed as translocation of pSMAD1/5
quantity-measured: IC50 (nM)
Write down the numeric answer in nM and omit the unit.

Noted for O=C(Nc1cc(Nc2c(Cl)cnc3c2OCO3)ccn1)C1CC1 : its IC50 reads 45
